Target: CFTR ΔF508 mutant (Homo sapiens, UniProt P13569, DEL508-508)
Construct: expressed in transfected cells; host or cells: CFBE41o- (adenoviral transduction)
Sequence (P13569 with tags, fused parts or gaps DEL508-508): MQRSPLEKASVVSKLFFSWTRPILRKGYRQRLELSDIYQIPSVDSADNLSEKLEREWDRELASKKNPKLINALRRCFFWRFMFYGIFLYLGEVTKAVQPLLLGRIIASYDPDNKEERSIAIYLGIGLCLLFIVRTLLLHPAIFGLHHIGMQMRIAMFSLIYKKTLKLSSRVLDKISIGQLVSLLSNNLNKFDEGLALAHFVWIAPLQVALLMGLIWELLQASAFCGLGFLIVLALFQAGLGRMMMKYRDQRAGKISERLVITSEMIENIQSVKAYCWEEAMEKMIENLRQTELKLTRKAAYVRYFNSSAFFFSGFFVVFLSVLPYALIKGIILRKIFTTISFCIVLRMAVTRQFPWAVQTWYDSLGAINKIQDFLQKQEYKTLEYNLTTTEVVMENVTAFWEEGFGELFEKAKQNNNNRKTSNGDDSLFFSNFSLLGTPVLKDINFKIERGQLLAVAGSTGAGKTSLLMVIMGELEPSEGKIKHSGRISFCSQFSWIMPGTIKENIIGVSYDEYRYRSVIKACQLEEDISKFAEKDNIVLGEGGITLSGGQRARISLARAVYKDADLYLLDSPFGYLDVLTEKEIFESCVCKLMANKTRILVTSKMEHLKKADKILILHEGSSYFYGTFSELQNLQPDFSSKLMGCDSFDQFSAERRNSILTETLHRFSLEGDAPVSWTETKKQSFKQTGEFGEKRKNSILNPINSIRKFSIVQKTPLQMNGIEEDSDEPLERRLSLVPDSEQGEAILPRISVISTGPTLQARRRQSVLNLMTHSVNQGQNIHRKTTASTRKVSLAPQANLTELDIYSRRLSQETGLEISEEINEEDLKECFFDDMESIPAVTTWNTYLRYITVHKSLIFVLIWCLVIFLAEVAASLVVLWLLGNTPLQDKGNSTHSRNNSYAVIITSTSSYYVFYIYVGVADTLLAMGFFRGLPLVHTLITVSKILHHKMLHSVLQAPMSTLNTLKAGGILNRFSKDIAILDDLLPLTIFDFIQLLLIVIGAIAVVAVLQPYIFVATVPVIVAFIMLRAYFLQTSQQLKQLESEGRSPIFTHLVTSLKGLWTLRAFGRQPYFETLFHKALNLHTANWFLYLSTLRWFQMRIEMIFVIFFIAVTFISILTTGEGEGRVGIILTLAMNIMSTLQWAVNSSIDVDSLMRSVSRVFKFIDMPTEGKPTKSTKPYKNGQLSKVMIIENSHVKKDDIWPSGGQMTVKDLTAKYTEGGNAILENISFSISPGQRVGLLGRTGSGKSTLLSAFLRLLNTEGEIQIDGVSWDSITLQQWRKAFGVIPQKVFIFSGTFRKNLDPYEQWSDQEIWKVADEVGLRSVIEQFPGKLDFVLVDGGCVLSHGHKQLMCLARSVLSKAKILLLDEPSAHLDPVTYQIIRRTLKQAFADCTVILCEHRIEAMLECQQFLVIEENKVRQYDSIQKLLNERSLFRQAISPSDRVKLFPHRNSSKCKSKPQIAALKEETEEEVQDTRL
Experiment: YFP-halide influx assay for the CFTR-ΔF508 mutation (384 well, CFBE41o- cells, FDSS/μCell)
Format: cell-based
Details: forskolin 10.67 μM, fluorescence after 36 seconds, read-out: EC50 measured by YFP-halide influx assay for the CFTR-ΔF508
The following ranges of EC50 define the classes used here: bin 0 (below 10 nM), bin 1 (10 nM to below 80 nM), bin 2 (80 nM or more)

molecule | class_name
CCC(CO)C(=O)Nc1sc2c(c1C(N)=O)CC(C)(C)OC2(C)C (centres unmarked) [Compound 86] | bin 2
CC1(C)Cc2c(sc(NC(=O)c3n[nH]cc3C3=CCOCC3)c2C(N)=O)C(C)(C)O1 [Compound 45] | bin 1
COC/C=C/c1c[nH]nc1C(=O)Nc1sc2c(c1C(N)=O)CC(C)(C)OC2(C)C [Compound 63] | bin 1
CC1(C)Cc2c(sc(NC(=O)c3cnccn3)c2C(N)=O)C(C)(C)O1 [Compound 138] | bin 1
CC1(C)Cc2c(sc(NC(=O)c3ccn[nH]3)c2C(N)=O)C(C)(C)O1 [Compound 2] | bin 0
CC1(C)Cc2c(sc(NC(=O)c3ccccc3C(F)F)c2C(N)=O)C(C)(C)O1 [Compound 123] | bin 2
CC1(C)Cc2c(sc(NC(=O)c3n[nH]cc3Br)c2C(N)=O)C(C)(C)O1 [Compound 33] | bin 0
CC1(C)Cc2c(sc(NC(=O)C3(CO)CC3)c2C(N)=O)C(C)(C)O1 [Compound 9] | bin 1
CC(C)(C)CC(O)C(=O)Nc1sc2c(c1C(N)=O)CC(C)(C)OC2(C)C (single isomer, unassigned) [Compound 110] | bin 0
CC1(C)Cc2c(sc(NC(=O)CO)c2C(N)=O)C(C)(C)O1 [Compound 66] | bin 2
CC(C)CC(O)C(=O)Nc1sc2c(c1C(N)=O)CC(C)(C)OC2(C)C (centres unmarked) [Compound 46] | bin 0
CCc1cc(C(=O)Nc2sc3c(c2C(N)=O)CC(C)(C)OC3(C)C)n[nH]1 [Compound 17] | bin 1
CC(C)C(CO)C(=O)Nc1sc2c(c1C(N)=O)CC(C)(C)OC2(C)C (centres unmarked) [Compound 74] | bin 2
COCC(C)(O)C(=O)Nc1sc2c(c1C(N)=O)CC(C)(C)OC2(C)C (centres unmarked) [Compound 155] | bin 1
Cc1ncoc1C(=O)Nc1sc2c(c1C(N)=O)CC(C)(C)OC2(C)C [Compound 135] | bin 2
CCOc1cc(C(=O)Nc2sc3c(c2C(N)=O)CC(C)(C)OC3(C)C)n[nH]1 [Compound 54] | bin 0

----------
Target: CFTR G551D mutant (Homo sapiens, UniProt P13569, G551D)
Construct: expressed in transfected cells; host or cells: HEK293 (reverse transfection with plasmids)
Sequence (P13569 whole entry G551D): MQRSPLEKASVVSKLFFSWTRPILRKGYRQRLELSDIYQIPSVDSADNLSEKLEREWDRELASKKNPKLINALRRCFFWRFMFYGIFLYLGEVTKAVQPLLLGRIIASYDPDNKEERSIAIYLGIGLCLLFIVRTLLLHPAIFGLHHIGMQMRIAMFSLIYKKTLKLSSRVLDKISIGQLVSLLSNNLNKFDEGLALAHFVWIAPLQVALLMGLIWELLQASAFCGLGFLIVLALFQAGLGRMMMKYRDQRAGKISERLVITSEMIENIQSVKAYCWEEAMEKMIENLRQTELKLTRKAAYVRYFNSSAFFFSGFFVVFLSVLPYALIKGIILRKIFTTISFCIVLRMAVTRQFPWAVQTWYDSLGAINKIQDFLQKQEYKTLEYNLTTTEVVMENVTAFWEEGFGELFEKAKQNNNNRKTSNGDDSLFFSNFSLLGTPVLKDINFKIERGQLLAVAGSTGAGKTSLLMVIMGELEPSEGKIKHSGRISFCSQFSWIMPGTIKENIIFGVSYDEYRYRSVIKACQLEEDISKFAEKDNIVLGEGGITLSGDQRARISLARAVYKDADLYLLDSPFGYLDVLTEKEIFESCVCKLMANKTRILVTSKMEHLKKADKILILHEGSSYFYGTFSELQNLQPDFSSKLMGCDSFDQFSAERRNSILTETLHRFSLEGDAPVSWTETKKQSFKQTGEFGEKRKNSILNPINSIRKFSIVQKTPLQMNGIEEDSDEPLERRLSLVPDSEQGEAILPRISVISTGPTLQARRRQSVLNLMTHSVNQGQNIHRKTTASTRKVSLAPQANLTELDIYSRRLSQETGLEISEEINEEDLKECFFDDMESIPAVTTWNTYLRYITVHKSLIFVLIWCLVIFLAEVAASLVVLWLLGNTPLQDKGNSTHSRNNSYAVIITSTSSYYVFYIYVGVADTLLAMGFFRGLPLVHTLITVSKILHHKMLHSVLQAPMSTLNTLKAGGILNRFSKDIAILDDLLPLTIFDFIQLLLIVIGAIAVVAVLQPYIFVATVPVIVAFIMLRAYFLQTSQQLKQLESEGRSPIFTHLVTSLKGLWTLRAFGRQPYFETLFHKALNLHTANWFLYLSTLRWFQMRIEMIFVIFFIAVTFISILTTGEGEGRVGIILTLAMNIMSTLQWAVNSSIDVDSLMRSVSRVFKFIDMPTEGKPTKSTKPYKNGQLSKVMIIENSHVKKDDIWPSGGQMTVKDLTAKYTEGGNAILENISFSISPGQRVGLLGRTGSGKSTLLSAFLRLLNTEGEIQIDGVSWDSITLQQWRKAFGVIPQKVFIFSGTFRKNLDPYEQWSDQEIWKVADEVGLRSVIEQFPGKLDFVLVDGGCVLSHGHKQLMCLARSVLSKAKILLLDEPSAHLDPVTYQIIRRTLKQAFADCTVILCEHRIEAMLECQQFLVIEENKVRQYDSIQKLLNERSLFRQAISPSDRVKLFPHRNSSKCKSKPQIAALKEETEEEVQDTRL
Assay: YFP-halide influx assay for the CFTR-G551D mutation (HEK293 cells)
Format: cell-based
Conditions: HEK293 cells expressing CFTR G551D and YFP reporter; forskolin 10.67 μM; read-out: EC50 measured by YFP-halide influx assay for the CFTR-G551D
Friendly reminder: EC50 below 2 µM is satisfied, at or above is not satisfied.

compound | class_name
CC1(C)Cc2c(sc(NC(=O)c3cocn3)c2C(N)=O)C(C)(C)O1 | not satisfied
CC1(C)Cc2c(sc(NC(=O)c3ccccc3-c3ncc[nH]3)c2C(N)=O)C(C)(C)O1 | satisfied
CC1(C)Cc2c(sc(NC(=O)c3n[nH]c4c3COCC4)c2C(N)=O)C(C)(C)O1 | satisfied
CC1(C)Cc2c(sc(NC(=O)c3ccn[nH]3)c2C(N)=O)C(C)(C)O1 | satisfied
CC1(C)Cc2c(sc(NC(=O)c3n[nH]cc3C3COCCO3)c2C(N)=O)C(C)(C)O1 (single isomer, unassigned) [Compound 112] | satisfied
CCOCCc1c[nH]nc1C(=O)Nc1sc2c(c1C(N)=O)CC(C)(C)OC2(C)C | satisfied
COCCOc1cc(C(=O)Nc2sc3c(c2C(N)=O)CC(C)(C)OC3(C)C)n[nH]1 | satisfied
CC(CO)C(=O)Nc1sc2c(c1C(N)=O)CC(C)(C)OC2(C)C (centres unmarked) | not satisfied

----------
Catalogue of EC50 readings, one per entry.
Biological target: CFTR-R117H (Homo sapiens, UniProt P13569, R117H)
Sequence (P13569 whole entry R117H): as the sequence (P13569 whole entry G551D) above, with R117H, D551G counted along it
Assay: YFP-halide influx assay for the CFTR-R117H
Details: CFTR-R117H mutant; read-out: EC50 measured by YFP-halide influx assay for the CFTR-R117H
measured_attribute: EC50 (nM)

molecule | measurement_target | value_units | recorded_measurement
CC1(C)Cc2c(sc(NC(=O)c3n[nH]cc3C3COCCO3)c2C(N)=O)C(C)(C)O1 (stereo not drawn) | CFTR-R117H (Homo sapiens, UniProt P13569, R117H) | nM | 106
CC(C)C(O)C(=O)Nc1sc2c(c1C(N)=O)CC(C)(C)OC2(C)C (stereo not drawn) [Compound 39] | CFTR-R117H (Homo sapiens, UniProt P13569, R117H) | nM | 145
CC(C)OCCOc1c[nH]nc1C(=O)Nc1sc2c(c1C(N)=O)CC(C)(C)OC2(C)C | CFTR-R117H (Homo sapiens, UniProt P13569, R117H) | nM | 1120

----------
Biological target: CFTR ΔF508 (Homo sapiens, UniProt P13569, DEL508-508)
Construct: host or cells: primary bronchial epithelial cells from CF patients homozygous for ΔF508, pre-treated with VX809
Sequence (P13569 with tags, fused parts or gaps DEL508-508): as the sequence (P13569 with tags, fused parts or gaps DEL508-508) above
Test: TECC assay, primary bronchial epithelial cells from CF patients homozygous for CFTR ΔF508
Format: cell-based
Details: at 3 μM, or 50 nM, or 50/100/200 nM
measured_attribute: activity on the CFTR protein in TECC assay (ΔISC vs DMSO baseline)

molecule | measurement_target | recorded_measurement
NC(=O)c1c(NC(=O)c2ccccc2Cl)sc2c1CCCC2 [B, reference compound] | CFTR ΔF508 (Homo sapiens, UniProt P13569, DEL508-508) | no such activity
CN1CCc2c(sc(NC(=O)c3ccccc3O)c2C(N)=O)C1 [A, reference compound] | CFTR ΔF508 (Homo sapiens, UniProt P13569, DEL508-508) | no such activity
NC(=O)c1c(NC(=O)c2cc[nH]n2)sc2c1CCOC2 [E, reference compound] | CFTR ΔF508 (Homo sapiens, UniProt P13569, DEL508-508) | no such activity

----------
Target: CFTR ΔF508 mutant (Homo sapiens, UniProt P13569, DEL508-508)
Construct: expressed in transfected cells; host or cells: CFBE41o- (adenoviral transduction)
Assay: YFP-halide influx assay for the CFTR-ΔF508 mutation (384 well, CFBE41o- cells, FDSS/μCell)
Type: cell-based
Settings: forskolin 10.67 μM, fluorescence after 36 seconds, read-out: EC50 measured by YFP-halide influx assay for the CFTR-ΔF508
pEC50: −log10 of the molar value.
measured_attribute: pEC50

molecule | measured_attribute | recorded_measurement
CC(O)CC(=O)Nc1sc2c(c1C(N)=O)CC(C)(C)OC2(C)C (centres unmarked) [Compound 58] | pEC50 | 6.75
CC1(C)Cc2c(sc(NC(=O)C3CC(F)(F)C3)c2C(N)=O)C(C)(C)O1 [Compound 47] | pEC50 | 6.93
CC1(C)Cc2c(sc(NC(=O)C3(O)CC3)c2C(N)=O)C(C)(C)O1 [Compound 4] | pEC50 | 7.65
CC1(C)Cc2c(sc(NC(=O)c3ccc(F)cc3O)c2C(N)=O)C(C)(C)O1 [Compound 21] | pEC50 | 9.15
COCC(C)(O)C(=O)Nc1sc2c(c1C(N)=O)CC(C)(C)OC2(C)C (single isomer, unassigned) [Compound 166] | pEC50 | 6.93
CC1(C)Cc2c(sc(NC(=O)C(O)C(C)(C)C)c2C(N)=O)C(C)(C)O1 (centres unmarked) [Compound 38] | pEC50 | 8.22
Cc1oncc1C(=O)Nc1sc2c(c1C(N)=O)CC(C)(C)OC2(C)C [Compound 146] | pEC50 | 6.69
CC1(C)Cc2c(sc(NC(=O)C(C)(C)CO)c2C(N)=O)C(C)(C)O1 [Compound 10] | pEC50 | 7.13
CCOC(=O)C1CC1C(=O)Nc1sc2c(c1C(N)=O)CC(C)(C)OC2(C)C (centres unmarked) [Compound 62] | pEC50 | 6.52
CC1(C)Cc2c(sc(NC(=O)c3nn(C(F)F)cc3Cl)c2C(N)=O)C(C)(C)O1 [Compound 116] | pEC50 | 7.06
CC1(C)Cc2c(sc(NC(=O)c3ccccc3NS(C)(=O)=O)c2C(N)=O)C(C)(C)O1 [Compound 28] | pEC50 | 6.83
Cc1csc(C(=O)Nc2sc3c(c2C(N)=O)CC(C)(C)OC3(C)C)n1 [Compound 131] | pEC50 | 6.77
CC1(C)Cc2c(sc(NC(=O)c3[nH]ncc3Cl)c2C(N)=O)C(C)(C)O1 [Compound 25] | pEC50 | 8.65
CC1(C)Cc2c(sc(NC(=O)c3ccccc3C(F)(F)F)c2C(N)=O)C(C)(C)O1 [Compound 5] | pEC50 | 7.32
CC1(C)Cc2c(sc(NC(=O)C(CO)C(C)(C)C)c2C(N)=O)C(C)(C)O1 (centres unmarked) [Compound 90] | pEC50 | 6.92
Cc1ccc(C(=O)Nc2sc3c(c2C(N)=O)CC(C)(C)OC3(C)C)cn1 [Compound 143] | pEC50 | 6.81
CC1(C)Cc2c(sc(NC(=O)C(C)(O)C(C)(C)C)c2C(N)=O)C(C)(C)O1 (centres unmarked) [Compound 81] | pEC50 | 8.49
